All values here come from ChEMBL document CHEMBL5724796.

molecular target: Mitogen-activated protein kinase 1 (Homo sapiens) (UniProt P28482); settings: Compound concentration 20.0 uM
Sequence (P28482 whole entry): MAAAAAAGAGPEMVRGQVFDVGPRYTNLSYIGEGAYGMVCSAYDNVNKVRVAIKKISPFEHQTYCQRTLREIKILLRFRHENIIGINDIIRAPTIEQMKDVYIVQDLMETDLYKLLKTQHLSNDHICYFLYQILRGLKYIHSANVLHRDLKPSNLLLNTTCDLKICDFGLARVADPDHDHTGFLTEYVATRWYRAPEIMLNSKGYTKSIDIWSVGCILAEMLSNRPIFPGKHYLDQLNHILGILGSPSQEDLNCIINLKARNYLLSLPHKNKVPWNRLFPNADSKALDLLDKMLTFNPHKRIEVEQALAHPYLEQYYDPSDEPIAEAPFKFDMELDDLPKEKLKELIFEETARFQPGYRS
Description: Thermal Shift Assay. Domain: start/stop: M1-S360
Classification by ΔTm | ranges: 1 (below 0.01 °C), 2 (0.01 °C to below 0.3 °C), 3 (0.3 °C or more)

INSERT INTO results (molecule, answerlabel) VALUES
  ('Nc1ncnc2c1ncn2[C@@H]1O[C@H](C[C@@H](N)CC[C@H](N)C(=O)O)[C@@H](O)[C@H]1O', 1),
  ('O=C(NC[C@H](O)CN1CCc2ccccc2C1)c1cc(NC2COC2)ncn1', 2),
  ('COc1ccc2nc3[nH]nc(C)c3c(NCCOCCO)c2c1', 1),
  ('Cc1ncccc1-c1cnc(NCc2c(F)ccc3c2CCO3)n2cnnc12', 3),
  ('O=C(O)/C(S)=C/c1c[nH]c2ccc(F)cc12', 2),
  ('CN(CC[C@@H](Oc1ccc(-c2ccccc2)cc1)c1ccc(F)cc1)CC(=O)O', 3),
  ('CNCc1ccc(-c2[nH]c3cc(F)cc4c3c2CCNC4=O)cc1', 2),
  ('O=C(c1ccc2[nH]ccc2c1)N1CCN(S(=O)(=O)c2ccc3[nH]c(=O)oc3c2)CC1', 3),
  ('Cc1cnc(-c2ccccc2C(C)C)nc1NCc1ccc(-n2ccnn2)cc1', 3),
  ('Cc1nc2ccccn2c1C(=O)CN1CCN(c2ccc(F)cn2)CC1', 2),
  ('COc1cc(C(=O)NCC2(N(C)C)CCCC2)cc(OC)c1OCc1ccccc1', 3),
  ('CCCNC(=O)[C@H]1O[C@@H]1C(=O)N[C@H](C(=O)N1CCC[C@H]1C(=O)O)[C@@H](C)CC', 1),
  ('O=C(c1cccc(-c2ccc(-c3cn(C(=O)N4CCCCC4c4ccccc4)nn3)cc2)c1)N1CCCCC1 (centres undefined)', 3),
  ('FC(F)(F)Cn1cc(-c2ccncc2)c(-c2ccc(OCc3ccc4ccccc4n3)cc2)n1', 3),
  ('CC(=O)C(=Cc1cc(O)c(O)c([N+](=O)[O-])c1)C(C)=O', 2),
  ('CC(=O)O[C@]1(C(C)=O)CC[C@H]2[C@@H]3C=C(Cl)C4=CC(=O)[C@@H]5C[C@@H]5[C@]4(C)[C@H]3CC[C@@]21C', 1),
  ('CCc1oc2ccccc2c1C(=O)c1cc(Br)c(O)c(Br)c1', 1),
  ('Cc1ncsc1-c1ccc([C@H](C)NC(=O)[C@@H]2C[C@@H](O)CN2C(=O)[C@@H](NC(=O)COCCCOCCNC(=O)C[C@@H]2N=C(c3ccc(Cl)cc3)c3c(sc(C)c3C)-n3c(C)nnc32)C(C)(C)C)cc1', 1);
